Tested on: SK-MEL-5 melanoma
assay-method-text: NCI-60 one-dose screen, 48 h
experimental-setup: 10 µM unless noted
About 83,000 compounds went through this panel and 20% of them were active in at least one assay; those are over-represented in the sample as a whole. Active and inactive are the calls of the source. How the source made its calls: active means growth percent below 10; inactive means the rest.
Possible outcomes: YES = active, NO = inactive

- compound: "CN1CCN(c2ccc3cc(-c4nc5ccccc5[nH]4)c(=O)oc3c2)CC1"
  group: "NO"
- compound: "O=C(Nc1cc(C(F)(F)F)cc(C(F)(F)F)c1)Nc1ccc(OCc2nnc(-c3ccc(Cl)cc3)o2)c(F)c1"
  group: "YES"
- compound: "O=S(=O)(NCCCNc1nccc(-c2c(-c3ccc(F)c(O)c3)nc3sccn23)n1)c1ccc(Cl)cc1"
  group: "NO"
- compound: "COc1ccc(C2NC3=C(CCCC3)C(C#N)(C#N)C2(C#N)C#N)cc1 (centres undefined)"
  group: "NO"
- compound: "COc1ccc(C2CC(c3cccs3)=NN2c2ccc(S(=O)(=O)NC(=O)Nc3ccc(C)cc3)cc2)cc1 (centres undefined)"
  group: "NO"
- compound: "COc1cc(CCn2nnc3c(Nc4ccc(N5CCOCC5)cc4)ncnc32)cc(OC)c1"
  group: "NO"
- compound: "COc1ccc(/C=C2\\Oc3cc(OCCN4CCCC4)ccc3C2=O)c(OC)c1"
  group: "NO"
- compound: "Cc1c(C(=O)NCc2ccccc2)[n+](=O)c2cc(F)ccc2n1[O-]"
  group: "NO"
- compound: "CN=S(=O)(NC(=O)c1ccc(Cl)cc1Cl)c1ccc(Br)s1 (centres undefined)"
  group: "NO"
